# System: AABA1060 (clinical isolate of Acinetobacter baumannii)
# protocol.notes: MIC broth microdilution, AABA1060
# Format: cell-based
# recorded.conditions: Acinetobacter baumannii, read-out: MIC AABA1060

| compound | MIC |
| --- | --- |
| C[C@@H](O)[C@H](NC(=O)c1ccc(C#C/C=C/c2ccc(CNC3CC3)cc2)cc1)C(=O)NO | 16 to 64 µg/mL |
| C[C@@H](N)[C@H](NC(=O)c1ccc(C#CC#CCC2CC2)cc1)C(=O)NO | 2 to 16 µg/mL |
| C[C@@H](N)[C@H](NC(=O)c1ccc(C#CC#Cc2ccc(OC(F)(F)F)cc2)cc1)C(=O)NO | 16 to 64 µg/mL |
| C[C@@H](N)[C@H](NC(=O)c1ccc(C#CC2CC2c2ccccc2)cc1)C(=O)NO (some centres unmarked) | 2 to 16 µg/mL |
| C[C@@H](N)[C@H](NC(=O)c1ccc(/C=C/C#Cc2ccc(F)cc2)cc1)C(=O)NO | 2 to 16 µg/mL |
| C[C@@H](O)[C@H](NC(=O)c1ccc(Cc2ccc(CN3CCOCC3)cc2)cc1)C(=O)NO | > 64 µg/mL |
| C[C@@H](NCC(=O)NC[C@H](NC(=O)c1ccc(C#C/C=C/c2ccccc2)cc1)C(=O)NO)c1ccccc1 | 16 to 64 µg/mL |
| CC(C)(N)[C@H](NC(=O)c1ccc(C#CC#CC2CCCC2)cc1)C(=O)NO | < 2 µg/mL |
| CC(C)(O)[C@H](NC(=O)c1ccc(C#CC#Cc2ccccc2)cc1)C(=O)NO | < 2 µg/mL |
| CC(C)(N)[C@H](NC(=O)c1ccc(C#CC#Cc2cccnc2)cc1)C(=O)NO | 2 to 16 µg/mL |
| Cn1cncc1C#CC#Cc1ccc(C(=O)N[C@H](C(=O)NO)C(C)(C)O)cc1 | 2 to 16 µg/mL |
| C[C@@H](O)[C@H](NC(=O)c1ccc(C#Cc2ccc(C(F)(F)F)nc2)cc1)C(=O)NO | 16 to 64 µg/mL |
| CC(C)(N)C(NC(=O)c1ccc(C#CC#CC2CC2)cc1)C(=O)NO (centres unmarked) | < 2 µg/mL |
| CC(C)(N)[C@H](NC(=O)c1ccc(C#CC#CC2CCNCC2)cc1)C(=O)NO | 16 to 64 µg/mL |

====

MIC values by entry
# System: ASAU001 (laboratory strain of S. aureus, ATCC29213)
# protocol.notes: MIC broth microdilution, ASAU001
# Format: cell-based
# recorded.conditions: Staphylococcus aureus, ATCC29213, read-out: MIC ASAU001

| compound | MIC |
| --- | --- |
| CC(C)(N)[C@H](NC(=O)c1ccc(C#CC#Cc2ccc(F)cc2)cc1)C(=O)NO | 2 to 16 µg/mL |
| CC(C)(N)C(NC(=O)c1ccc(C#CC#Cc2ccc(CNC3CC3)cc2)cc1)C(=O)NO (centres unmarked) | 16 to 64 µg/mL |
| C[C@@H](N)[C@H](NC(=O)c1ccc(C#CC#Cc2ccc(CN3CCS(=O)(=O)CC3)cc2)cc1)C(=O)NO | 16 to 64 µg/mL |
| O=C(NC(C(=O)NO)C(F)(F)F)c1ccc(/C=C/C#Cc2ccc(CN3CCOCC3)cc2)cc1 (centres unmarked) | 16 to 64 µg/mL |
| C[C@@H](N)[C@H](NC(=O)c1ccc(C#Cc2ccc(CNCC3CCCO3)cc2)cc1)C(=O)NO (some centres unmarked) | > 64 µg/mL |

====

# Test system: APAE001 (ATCC27853)
# protocol.notes: MIC broth microdilution, APAE001
# Format: cell-based, P. aeruginosa
# recorded.conditions: Pseudomonas aeruginosa, ATCC27853, read-out: MIC APAE001, APAE001 is ATCC27853
Entries annotated with measured MIC

| compound | MIC |
| --- | --- |
| C[C@@H](N)[C@H](NC(=O)c1ccc(C#Cc2ccc(CN3CCC(O)C3)cc2)cc1)C(=O)NO (some centres unmarked) [Example 115-6] | < 2 µg/mL |
| C[C@@H](NC(=O)CNC1CC1)[C@H](NC(=O)c1ccc(C#Cc2ccc(CN3CCOCC3)cc2)cc1)C(=O)NO [Example 137-2] | 2 to 16 µg/mL |
| CC(C)(O)[C@H](NC(=O)c1ccc(/C=C/C#Cc2ccc(CO)cc2)cc1)C(=O)NO [Example 112-5] | < 2 µg/mL |
| C[C@@H](N)[C@H](NC(=O)c1ccc(C#CC#Cc2cncn2C)cc1)C(=O)NO [Example 88-1] | 2 to 16 µg/mL |
| CCOCc1ccc(C#C/C=C/c2ccc(C(=O)N[C@H](C(=O)NO)[C@@H](C)N)cc2)cc1 [Example 113-10] | 2 to 16 µg/mL |

====

# System: ASAU001 (laboratory strain of S. aureus, ATCC29213)
# protocol.notes: MIC broth microdilution, ASAU001
# Format: cell-based
# recorded.conditions: Staphylococcus aureus, ATCC29213, read-out: MIC ASAU001

| compound | target.under.test | MIC |
| --- | --- | --- |
| COCc1ccc(C#C/C=C/c2ccc(C(=O)N[C@H](C(=O)NO)[C@@H](C)N)cc2)cc1 | ASAU001 (laboratory strain of S. aureus, ATCC29213) | 16 to 64 µg/mL |
| C[C@@H](N)[C@H](NC(=O)c1ccc(C#CC#Cc2cccnc2)cc1)C(=O)NO | ASAU001 (laboratory strain of S. aureus, ATCC29213) | > 64 µg/mL |
| C[C@@H](O)[C@H](NC(=O)c1ccc(C=C(F)C#Cc2ccc(CN3CCOCC3)cc2)cc1)C(=O)NO | ASAU001 (laboratory strain of S. aureus, ATCC29213) | > 64 µg/mL |
| C[C@H](O)[C@H](NC(=O)c1ccc(C#C/C=C/c2ccc(CNC3CC3)cc2)cc1)C(=O)NO | ASAU001 (laboratory strain of S. aureus, ATCC29213) | > 64 µg/mL |
| C[C@@H](O)[C@H](NC(=O)c1ccc(C#CC#Cc2ccc(CO)cc2)cc1)C(=O)NO | ASAU001 (laboratory strain of S. aureus, ATCC29213) | 16 to 64 µg/mL |
| C[C@@H](N)[C@H](NC(=O)c1ccc(C#CC#CC(C)(C)O)cc1)C(=O)NO | ASAU001 (laboratory strain of S. aureus, ATCC29213) | 16 to 64 µg/mL |
| C[C@@H](N)[C@H](NC(=O)c1ccc(C#CC#Cc2cncn2C)cc1)C(=O)NO | ASAU001 (laboratory strain of S. aureus, ATCC29213) | 16 to 64 µg/mL |
| O=C(CNC1CC1)NC[C@H](NC(=O)c1ccc(C#CC#Cc2ccccc2)cc1)C(=O)NO | ASAU001 (laboratory strain of S. aureus, ATCC29213) | 16 to 64 µg/mL |
| C[C@@H](N)[C@H](NC(=O)c1ccc(C#Cc2ccc(CN3CCC3)cc2)cc1)C(=O)NO | ASAU001 (laboratory strain of S. aureus, ATCC29213) | 16 to 64 µg/mL |
| C[C@@H](O)[C@H](NC(=O)c1ccc(SCc2ccc(CN3CCOCC3)cc2)cc1)C(=O)NO | ASAU001 (laboratory strain of S. aureus, ATCC29213) | > 64 µg/mL |
| CC(C)CC#CC#Cc1ccc(C(=O)N[C@H](C(=O)NO)C(C)(C)N)cc1 | ASAU001 (laboratory strain of S. aureus, ATCC29213) | 2 to 16 µg/mL |
| C[C@@H](N)[C@H](NC(=O)c1ccc(C#CC#CC2CCC2)cc1)C(=O)NO | ASAU001 (laboratory strain of S. aureus, ATCC29213) | 16 to 64 µg/mL |
| CCOCc1ccc(C#Cc2ccc(C(=O)N[C@H](C(=O)NO)[C@@H](C)N)cc2)cc1 | ASAU001 (laboratory strain of S. aureus, ATCC29213) | 16 to 64 µg/mL |
| C[C@@H](N)[C@H](NC(=O)c1ccc(/C=C/C#Cc2ccc(OC(F)(F)F)cc2)cc1)C(=O)NO | ASAU001 (laboratory strain of S. aureus, ATCC29213) | 2 to 16 µg/mL |
| C[C@@H](O)[C@H](NC(=O)c1ccc(C#CC#Cc2cccc(F)c2)cc1)C(=O)NO | ASAU001 (laboratory strain of S. aureus, ATCC29213) | 16 to 64 µg/mL |
| C[C@@H](N)[C@H](NC(=O)c1ccc(C#Cc2ccc(CS(C)(=O)=O)cc2)cc1)C(=O)NO | ASAU001 (laboratory strain of S. aureus, ATCC29213) | 16 to 64 µg/mL |
| C[C@@H](N)[C@H](NC(=O)c1ccc(/C=C/C#Cc2ccncc2)cc1)C(=O)NO | ASAU001 (laboratory strain of S. aureus, ATCC29213) | 16 to 64 µg/mL |
| NC[C@H](NC(=O)C#Cc1ccc(C#CCN2CCOCC2)cc1)C(=O)NO | ASAU001 (laboratory strain of S. aureus, ATCC29213) | > 64 µg/mL |
| C[C@@H](N)[C@H](NC(=O)c1ccc(C#C/C=C/c2ccc(CN3CCOCC3)cc2)cc1)C(=O)NO | ASAU001 (laboratory strain of S. aureus, ATCC29213) | > 64 µg/mL |
| C[C@H](N)[C@H](NC(=O)c1ccc(C#Cc2ccc(CN3CCOCC3)cc2)cc1)C(=O)NO | ASAU001 (laboratory strain of S. aureus, ATCC29213) | > 64 µg/mL |
| C[C@@H](N)[C@H](NC(=O)c1ccc(C#CC(O)c2ccc(CN3CCOCC3)cc2)cc1)C(=O)NO (stereo partly shown) | ASAU001 (laboratory strain of S. aureus, ATCC29213) | 16 to 64 µg/mL |
| C[C@@H](N)[C@H](NC(=O)c1ccc(C#CC#Cc2ccc(CN3CCOCC3)cc2)cc1)C(=O)NO | ASAU001 (laboratory strain of S. aureus, ATCC29213) | 16 to 64 µg/mL |
